experimentalTarget: T1, SH2D3A SH2 domain (human, UniProt Q9BRG2 15-114)
T1 construct: SH2D3A, human; source: bacterial expression, purified
T1 sequence (Q9BRG2 15-114): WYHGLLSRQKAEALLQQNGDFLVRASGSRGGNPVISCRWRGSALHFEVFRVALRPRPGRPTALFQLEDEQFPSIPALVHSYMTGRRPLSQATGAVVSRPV
runDescription: peptide or protein array; SH2/PTB proteins spotted on aldehyde slides, rhodamine peptide titrated in buffer B (20 mM HEPES, 100 mM KCl, 0.1% Tween-20, 5 mM DTT, pH 7.8), 1 h at room temperature; replicate assays
settings: both partners purified
pKd: −log10 of the molar value. Non-standard residues stand in square brackets, D forms with d. No end group written: not given here. pY = N[C@@H](Cc1ccc(OP(=O)(O)O)cc1)C(=O)O; Rhodamine = not defined here
readoutLabel: pKd

>>> datavalue("Rhodamine-PLQR[pY]SEDPTVPD (reading uncertain) [ErbB2 pY1112 phosphopeptide, rhodamine-labelled, for protein microarrays]")
4.58
